Data origin, for the record: patent US20040058948A1

# System: HIV-1 replication
# experimental-details: Cell culture viral growth assay (HIV-1 replication)
# Format: cell-based
# stated-conditions: Human immunodeficiency virus 1, read-out: EC50 (μM) against HIV-1 replication
parameter-measured: EC50

CCC(O)c1cc2n(c(=O)c1C)Cc1c-2nc2ccc(NC(=O)OC(C)(C)C)cc2c1[Si](C)(C)C (centres unmarked) ... ~5 µM

Below: the item to evaluate.
Exercise: Given the compound CCc1c2c(nc3ccc(N)cc13)-c1cc(C(O)CC)c(C)c(=O)n1C2 (centres unmarked) , write its reported EC50.
Solution: ~5 µM

###

# test-target: RNase H activity of HIV reverse transcriptase (Human immunodeficiency virus type 1 group M subtype B)
# experimental-details: Fluorescence (FRET)-based RNase H activity assay of HIV reverse transcriptase
# Assay type: biochemical, HIV-1
# Parameters: final concentration of 2.5 nM of the p51/p66 RT heterodimer in the assay; made in house
# stated-conditions: 10 μM inhibitor concentration; activity with analog / without analog x 100
Please respond with reported Residual activity (%) RNase H for every item in the list.

Provide reported Residual activity (%) RNase H for each item, in the same order as listed.
1. CCCCCCc1c2c(nc3ccc(F)cc13)-c1cc(C(O)CCC3CCCCC3)c(C)c(=O)n1C2 (stereo not shown)
2. Cc1c(C(O)C(C)(C)C)cc2n(c1=O)Cc1c-2nc2ccccc2c1[Si](C)(C)C(C)(C)C (racemic)

Solution:
1: 112%; 2: 101%

Provide reported Residual activity (%) RNase H for each item, in the same order as listed.
1. CCCCCCc1c2c(nc3ccccc13)-c1cc(C(=O)CC)c(C)c(=O)n1C2
2. CCC(=O)c1cc2n(c(=O)c1C)Cc1c-2nc2ccccc2c1[Si](C)(C)C
3. COc1ccc2nc3c(c([Si](C)(C)C)c2c1)Cn1c-3cc(C(O)C(C)(C)C)c(C)c1=O (stereo not shown)
4. CCC(=O)c1cc2n(c(=O)c1C)Cc1c-2nc2ccc(F)cc2c1-c1ccccc1
5. CCCCCCc1c2c(nc3ccc(C)cc13)-c1cc(C(=O)CC)c(C)c(=O)n1C2
6. Cc1c(C(=O)C(C)(C)C)cc2n(c1=O)Cc1c-2nc2ccc(F)cc2c1[Si](C)(C)C
7. CCC(O)c1cc2n(c(=O)c1C)Cc1c-2nc2ccccc2c1-c1ccccc1 (racemic)
8. CCCCCCc1c2c(nc3ccc(C)cc13)-c1cc(C(O)Cc3ccccc3)c(C)c(=O)n1C2 (racemic)

Solution:
1: 77%; 2: 103%; 3: 102%; 4: 94%; 5: 92%; 6: 100%; 7: 97%; 8: 76%

Provide reported Residual activity (%) RNase H for each item, in the same order as listed.
1. Cc1c(C(O)CCC2CCCCC2)cc2n(c1=O)Cc1c-2nc2ccccc2c1[Si](C)(C)C (racemic)
2. CCc1c2c(nc3ccccc13)-c1cc(C(O)CC)c(C)c(=O)n1C2 (racemic)
3. Cc1ccc2nc3c(c([Si](C)(C)C(C)(C)C)c2c1)Cn1c-3cc(C(=O)CCC2CCCCC2)c(C)c1=O

Solution:
1: 78%; 2: 74%; 3: 96%

###

Please respond with reported Residual activity (%) Polymerase for every item in the list.
# test-target: RNA-dependent DNA polymerase activity of HIV reverse transcriptase (Human immunodeficiency virus type 1 group M subtype B, UniProt P04585)
# Construct: made in house
# experimental-details: RNA-dependent DNA polymerase activity assay of HIV reverse transcriptase
# Assay type: biochemical, HIV-1
# stated-conditions: 10 μM inhibitor concentration; activity with analog / without analog x 100
Numbers only, in %.

Known Residual activity (%) Polymerase results, listed for orientation:
CCC(O)c1cc2n(c(=O)c1C)Cc1c-2nc2ccc(C)cc2c1[Si](C)(C)C(C)(C)C (centres unmarked) [4Cα] ... 94
Cc1c(C(O)Cc2ccccc2)cc2n(c1=O)Cc1c-2nc2ccc(F)cc2c1-c1ccccc1 (racemic) [3Bε] ... 28
Cc1c(C(O)CCC2CCCCC2)cc2n(c1=O)Cc1c-2nc2ccccc2c1[Si](C)(C)C(C)(C)C (racemic) [4Aδ] ... 45
CCCCCCc1c2c(nc3ccc(C)cc13)-c1cc(C(=O)CCC3CCCCC3)c(C)c(=O)n1C2 [8Cδκ] ... 79
Cc1c(C(=O)C(C)(C)C)cc2n(c1=O)Cc1c-2nc2ccccc2c1-c1ccccc1 [3Aβκ] ... 64

Provide reported Residual activity (%) Polymerase for each item, in the same order as listed.
1. Cc1ccc2nc3c(c([Si](C)(C)C)c2c1)Cn1c-3cc(C(O)CCC2CCCCC2)c(C)c1=O (racemic) [5Cδ]
2. CCC(=O)c1cc2n(c(=O)c1C)Cc1c-2nc2ccc(F)cc2c1[Si](C)(C)C(C)(C)C [4Bακ]
3. CCC(O)c1cc2n(c(=O)c1C)Cc1c-2nc2ccc(F)cc2c1[Si](C)(C)C (centres unmarked) [5Bα]

Solution:
1. 41
2. 42
3. 82

###

# test-target: RNase H activity of HIV reverse transcriptase (Human immunodeficiency virus type 1 group M subtype B, UniProt P04585)
# experimental-details: Fluorescence (FRET)-based RNase H activity assay of HIV reverse transcriptase
# Type: biochemical, HIV-1
# Set-up: final concentration of 2.5 nM of the p51/p66 RT heterodimer in the assay; made in house
# stated-conditions: read-out: IC50 (μM) against HIV RNase H in vitro
parameter-measured: IC50
The answer consists of two parts: a number and, after it, its unit.

Exercise: Given the compound CC(C)(C)c1ccc(C(=O)NN=Cc2c(O)ccc3ccccc23)cc1 , write its reported IC50.
Solution: 1.8 µM

###

Please respond with reported remaining activity at 10 µM for every item in the list.
# test-target: UniProtKB P04585
# experimental-details: Fluorescence (FRET)-based RNase H activity assay of HIV reverse transcriptase
# Format: biochemical, HIV-1
# Set-up: final concentration of 2.5 nM of the p51/p66 RT heterodimer in the assay; made in house
# stated-conditions: 10 μM inhibitor concentration; activity with analog / without analog x 100; read-out: Residual activity (%) RNase H
One number for each entry, in %.

CCc1c2c(nc3ccc(NC(=O)OC(C)(C)C)cc13)-c1cc(C(O)CC)c(C)c(=O)n1C2 (stereo not drawn) ... 68
CCC(O)c1cc2n(c(=O)c1C)Cc1c-2nc2ccc(NC(=O)OC(C)(C)C)cc2c1[Si](C)(C)C (stereo not drawn) ... 47
CCc1c2c(nc3ccc(O)cc13)-c1cc(C(O)CC)c(C)c(=O)n1C2 (stereo not drawn) ... 87
CCC(O)c1cc2n(c(=O)c1C)Cc1c-2nc2ccc(N)cc2c1[Si](C)(C)C (stereo not drawn) ... 63
CCc1c2c(nc3ccc(OC(C)=O)cc13)-c1cc(C(O)CC)c(C)c(=O)n1C2 (stereo not drawn) ... 63

Below: the item to evaluate.
Exercise: GET remaining activity at 10 µM | system: UniProtKB P04585 | item: CCc1c2c(nc3ccc(N)cc13)-c1cc(C(O)CC)c(C)c(=O)n1C2 (stereo not drawn)
Solution: 57

###

Please respond with reported Residual activity (%) RNase H for every item in the list.
# test-target: RNase H activity of HIV reverse transcriptase (Human immunodeficiency virus type 1 group M subtype B)
# experimental-details: Fluorescence (FRET)-based RNase H activity assay of HIV reverse transcriptase
# Assay type: biochemical, HIV-1
# Parameters: final concentration of 2.5 nM of the p51/p66 RT heterodimer in the assay; made in house
# stated-conditions: 10 μM inhibitor concentration; activity with analog / without analog x 100
# Description: Recently, a fluorescence-based assay to perform preliminary screens in search of HIV RNase H inhibitors has been developed. […] The assay for RNase H activity of HIV reverse transcriptase was the fluorescence-based assay described in detail in the Experimental section and discussed in U.S. Provisional Patent Application Serial No. 60/318,359. […] Assay for Ribonuclease H Activity Based on Fluorescence Resonance Energy Transfer (FRET) […]
Numbers only, in %.

CCCCCCc1c2c(nc3ccc(F)cc13)-c1cc(C(=O)CCC3CCCCC3)c(C)c(=O)n1C2 ... 95
CCC(O)c1cc2n(c(=O)c1C)Cc1c-2nc2ccc(OC)cc2c1[Si](C)(C)C(C)(C)C (stereo not shown) ... 79
Cc1ccc2nc3c(c([Si](C)(C)C)c2c1)Cn1c-3cc(C(O)Cc2ccccc2)c(C)c1=O (racemic) ... 93

Exercise: Given the molecule Cc1ccc2nc3c(c(-c4ccccc4)c2c1)Cn1c-3cc(C(=O)CCC2CCCCC2)c(C)c1=O , write its reported Residual activity (%) RNase H.
Solution: 93

###

Please respond with reported Residual activity (%) RNase H for every item in the list.
# test-target: RNase H activity of HIV reverse transcriptase (Human immunodeficiency virus type 1 group M subtype B, UniProt P04585)
# experimental-details: Fluorescence (FRET)-based RNase H activity assay of HIV reverse transcriptase
# Type: biochemical, HIV-1
# Set-up: final concentration of 2.5 nM of the p51/p66 RT heterodimer in the assay; made in house
# stated-conditions: 10 μM inhibitor concentration; activity with analog / without analog x 100
Answers are plain numbers, in %.

Provide reported Residual activity (%) RNase H for each item, in the same order as listed.
1. Cc1c(C(O)C(C)(C)C)cc2n(c1=O)Cc1c-2nc2ccc(F)cc2c1-c1ccccc1 (racemic)
2. CCCCCCc1c2c(nc3ccccc13)-c1cc(C(O)C(C)(C)C)c(C)c(=O)n1C2 (centres unmarked)
3. COc1ccc2nc3c(c([Si](C)(C)C(C)(C)C)c2c1)Cn1c-3cc(C(O)CCC2CCCCC2)c(C)c1=O (racemic)

Solution:
75
91
87

Provide reported Residual activity (%) RNase H for each item, in the same order as listed.
1. Cc1c(C(O)C(C)(C)C)cc2n(c1=O)Cc1c-2nc2ccc(F)cc2c1[Si](C)(C)C(C)(C)C (racemic)
2. Cc1c(C(O)C(C)(C)C)cc2n(c1=O)Cc1c-2nc2ccccc2c1[Si](C)(C)C (racemic)
3. Cc1c(C(O)C(C)(C)C)cc2n(c1=O)Cc1c-2nc2ccccc2c1-c1ccccc1 (racemic)
4. CCCCCCc1c2c(nc3ccc(OC)cc13)-c1cc(C(O)CCC3CCCCC3)c(C)c(=O)n1C2 (racemic)
5. CCC(=O)c1cc2n(c(=O)c1C)Cc1c-2nc2ccccc2c1-c1ccccc1

Solution:
1: 113; 2: 77; 3: 95; 4: 63; 5: 87

Provide reported Residual activity (%) RNase H for each item, in the same order as listed.
1. Cc1c(C(=O)CCC2CCCCC2)cc2n(c1=O)Cc1c-2nc2ccccc2c1[Si](C)(C)C(C)(C)C
2. Cc1ccc2nc3c(c([Si](C)(C)C)c2c1)Cn1c-3cc(C(O)C(C)(C)C)c(C)c1=O (racemic)
3. COc1ccc2nc3c(c([Si](C)(C)C)c2c1)Cn1c-3cc(C(=O)C(C)(C)C)c(C)c1=O
4. CCCCCCc1c2c(nc3ccc(F)cc13)-c1cc(C(O)CC)c(C)c(=O)n1C2 (centres unmarked)

Solution:
102
80
86
80
